Target: T1, recombinant mouse VISTA (His-tagged) (mouse, UniProt Q9D659 33-191)
T1 construct: also called murine VISTA; mVISTA
T1 sequence (looked up): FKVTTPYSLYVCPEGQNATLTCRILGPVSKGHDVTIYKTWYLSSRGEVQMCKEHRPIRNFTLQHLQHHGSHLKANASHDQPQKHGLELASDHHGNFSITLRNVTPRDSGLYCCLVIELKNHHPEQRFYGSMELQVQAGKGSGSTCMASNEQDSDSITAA
Experiment: BLI (Octet), 1:1 global fit, His-tagged mouse VISTA captured
The following binders are shown together with reported koff values.
Number in s⁻¹, nothing else.

Please review the following examples before continuing.
anti-VISTA clone V4-C9 IgG1 (antibody, V domains shown) VH: QVQLQESGPGLVKPSDTLSLTCTVSGYSITSDYAWNWIRQTPGKGLEWIGYITYSGYVSYNPSLRSRVTISRDTSKNQFSLKLSSVTAADTAVYSCARALYYPWYFDVWGTGTTVTVSS VL: EIVLTQSPATLSLSPGERATLSCRASSSVGYIHWYQQKPGQAPRPLIYATSNRATGIPARFSGSGSGTDNTLTISSLEPEDSAVYYCQQWSSYPPITFGGGTKLEVKR
0.00067
anti-VISTA clone V4-C28 IgG1 (antibody, V domains shown) VH: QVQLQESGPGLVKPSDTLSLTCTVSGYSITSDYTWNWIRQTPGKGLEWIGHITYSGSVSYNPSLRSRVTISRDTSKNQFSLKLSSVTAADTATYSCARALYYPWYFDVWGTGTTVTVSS VL: EIVLTQSPATLSLSPGERATLSCRASSSVGYIHWYQQKPGQAPRPLIYATSYRATGIPARFSGSGSGTDNTLTISSLEPEDSAVYYCQQWSSYPPITFGGGTKLEVKR
0.00025

Okay, now this binder:
Documented koff of anti-VISTA clone V4-C1 IgG1 (antibody, V domains shown) VH: QVQLQESGPGLVKPSDTLSLTCTVSGYSITSDYAWNWIRQTPGKGLEWIGYITYSGYISYNPSLRSRVTISRDTSKNQFSLKLSSVTAADTAVYSCARALYYPWYFDVWGTGTTVTVSS VL: EIVITQSPATLSLSPGERATLSCRASSSVGYIHWYQQKPGQAPRPLIYATSNRATGIPARFSGSGSGTDNTLTISSLEPEDSAVYYCQQWSSYPPITFGGGTKLEVKR : 0.022
